Provide the reported IC50 of each item.
experimental.system: Human immunodeficiency virus type 1 reverse transcriptase (Human immunodeficiency virus 1, UniProt Q72547)
protocol.description: Inhibition of RNA-dependent DNA polymerase activity of Human immunodeficiency virus 1 reverse transcriptase

Completed entries (count: 6):
structure.string	IC50
Oc1ccc(-c2csc(Nc3ccccn3)n2)cc1O	> 100 µM
COc1ccc(S(=O)(=O)N/N=C/c2cc(=O)[nH]c(=O)[nH]2)cc1	> 100 µM
COc1ccc(S(=O)(=O)N/N=C/c2cccc[n+]2[O-])cc1OC	> 100 µM
CNc1ccccc1C(=O)N/N=C/c1c(O)ccc2ccccc12	> 100 µM
Cc1ccc(S(=O)(=O)NCN2C(=O)c3ccccc3C2=O)cc1	> 100 µM
CC(=O)Nc1ccc(S(=O)(=O)N/N=C/c2c(O)ccc3ccccc23)cc1	> 100 µM

For each of the items listed, what is its IC50?
1. O=[N+]([O-])c1ccc(-c2nc(CN3CCOCC3)cs2)s1
2. Oc1ccc2ccccc2c1/C=N/NC(=S)N[C@@H]1CN2CCC1CC2
3. O=S(=O)(N/N=C/c1cc(Cl)ccc1O)c1cc(Cl)c(Cl)cc1Cl

1. > 100 µM
2. > 100 µM
3. 25 µM

For each of the items listed, what is its IC50?
1. O=[N+]([O-])c1ccc(O)c(/C=N/NS(=O)(=O)c2cc(Cl)c(Cl)cc2Cl)c1
2. COc1cc(/C=N/NS(=O)(=O)c2ccc(C)cc2)cc([N+](=O)[O-])c1O
3. Cc1ccc([N+](=O)[O-])cc1NS(=O)(=O)c1cc(Cl)c(Cl)cc1Cl
4. O=C(N/N=C/c1ccc(O)c(O)c1)c1ccccc1

1. 22 µM
2. > 100 µM
3. > 100 µM
4. 9 µM

Consider the compound COc1ccccc1C(=O)N/N=C/c1c(O)ccc2ccccc12 and give its measured IC50. > 100 µM
